experimental-system: T1, human GPC3 recombinant protein (purchased from Shanghai Rui Jin Biotechnology Co., Ltd.) (human, UniProt P51654 25-559, limits assumed)
T1 construct: Bought recombinant protein; also called huGPC3; antigen GPC3
run-description: SPR Biacore T200, antibody captured by anti-human IgG (Fc), GPC3 as analyte, single-cycle kinetics, 25 °C
Procedure: To quantitatively analyze the binding of P7D4 series antibodies to GPC3, the affinity and kinetic parameters of P7D4 series single-chain antibodies were measured by capture method using Biacore T200 system (from GE). […] The interaction between human GPC3 and the captured antibody caused the change of the molecular concentration on the surface of the sensor chip which was measured according to changes in SPR Signal and expressed in resonance units (RU). […]
Kindly supply the reported koff values for the records listed here.
Express the result in s⁻¹ but write the number alone.

Request: Returns the measured koff for the input binder. Input: P7D4 mutant single chain antibody am42 (scFv, not shown: a dimerising Fc or GST) scFv: QVQLQESGGGLVQPGRSLRLSCAASGFTFSSYAMHWVRQAPGKGLEWVSAISSSGGSTYYADSVKGRFTISRDNSKNTLYLQMNSLRAEDTAVYYCAKDRRGSHADAFDVWGQGTLVTVSSGGGGSGGGGSGGGGSQSALTQPPSASGSPGQSVTISCTGTSSDVGLMHNVSWYQQYPGKAPKLLIYKSSSRPSGVPDRFSGSKSGTSASLAITGLQAEDGADYYCQSYDSSLRVVFGGGTKVTVLG
Response: 6.7e-05

Request: How about this binder: P7D4 mutant single chain antibody am35 (scFv, not shown: a dimerising Fc or GST) scFv: QVQLQESGGGLVQPGRSLRLSCAASGFTFSSYAMHWVRQAPGKGLEWVSAISSSGGSTYYADSVKGRFTISRDNSKNTLYLQMNSLRAEDTAVYYCAKDRRGSHADAFDVWGQGTLVTVSSGGGGSGGGGSGGGGSQSALTQPPSASGSPGQSVTISCTGTSSDVGHKFPVSWYQQYPGKAPKLLIYKNLLRPSGVPDRFSGSKSGTSASLAITGLQAEDGADYYCQSYDSSLRVVFGGGTKVTVLG
Response: 5.2e-05

Request: Next binder up: P7D4 mutant single chain antibody am20 (scFv, not shown: a dimerising Fc or GST) scFv: QVQLQESGGGLVQPGRSLRLSCAASGFTFSTYAMNWVRQAPGKGLEWVSAISMSGESTYYADSVKGRFTISRDNSKNTLYLQMNSLRAEDTAVYYCAKDRRGSHADAFDVWGQGTLVTVSSGGGGSGGGGSGGGGSQSALTQPPSASGSPGQSVTISCTGTSSDVGGYNYVSWYQQYPGKAPKLLIYGNSNRPSGVPDRFSGSKSGTSASLAITGLQAEDGADYYCQSYDSSLRVVFGGGTKVTVLG
Response: 6.47e-05

Request: Thanks! And P7D4 mutant single chain antibody am4 (scFv, not shown: a dimerising Fc or GST) scFv: QVQLQESGGGLVQPGRSLRLSCAASGFTFSTYAMTWVRQAPGKGLEWVSSISSSGESTYYADSVKGRFTISRDNSKNTLYLQMNSLRAEDTAVYYCAKDRRGSHADAFDVWGQGTLVTVSSGGGGSGGGGSGGGGSQSALTQPPSASGSPGQSVTISCTGTSSDVGGYNYVSWYQQYPGKAPKLLIYGNSNRPSGVPDRFSGSKSGTSASLAITGLQAEDGADYYCQSYDSSLRVVFGGGTKVTVLG ?
Response: 4.08e-05

Request: And P7D4 mutant single chain antibody am14 (scFv, not shown: a dimerising Fc or GST) scFv: QVQLQESGGGLVQPGRSLRLSCAASGFTFSTYAMAWVRQAPGKGLEWVSEISSSGSRTYYADSVKGRFTISRDNSKNTLYLQMNSLRAEDTAVYYCAKDRRGSHADAFDVWGQGTLVTVSSGGGGSGGGGSGGGGSQSALTQPPSASGSPGQSVTISCTGTSSDVGGYNYVSWYQQYPGKAPKLLIYGNSNRPSGVPDRFSGSKSGTSASLAITGLQAEDGADYYCQSYDSSLRVVFGGGTKVTVLG ?
Response: 4.43e-05
